Tested on: IGROV1 ovarian
assayProcedure: NCI-60 one-dose screen, 48 h (100 = growth as untreated, 0 = no growth, -100 = all killed)
details: 10 µM unless noted
About 83,000 compounds went through this panel and 20% of them were active in at least one assay; those are over-represented in the sample as a whole.
Note to self: class labels come from recorded growth, ranges listed here: one: < 20%; two: ≥ 20% and < 60%; three: ≥ 60%

Problem: In plain terms, what class is Oc1ccccc1/C=N/Nc1ccc2ccccc2n1 ?
Solution: two

Problem: In plain terms, what class is OC(c1cccc(C(F)(F)F)c1)c1cnccc1NC1CCCCCC1 (stereo not given) ?
Solution: two

Problem: In plain terms, what class is O=C1C=CC(Nc2ccccc2[N+](=O)[O-])C1Nc1ccccc1[N+](=O)[O-] (stereo not given) ?
Solution: three

Problem: In plain terms, what class is Cc1cccc(NC(=O)c2sc3nc4c(cc3c2N)C(=O)CCC4)c1 ?
Solution: one

Problem: In plain terms, what class is Nc1nc2ccc(-c3nc4ccc5[nH]ncc5c4c4c3CCC4)cc2s1 ?
Solution: two

Problem: In plain terms, what class is Cn1c2ccccc2c2c3c(c4c5ccccc5[nH]c4c21)C(=O)N(N)C3=O ?
Solution: three

Problem: In plain terms, what class is CNCCCn1c2c(c3ccc([N+](=O)[O-])cc3c1=O)C(=O)c1cc(OC)cnc1-2 ?
Solution: one

Problem: In plain terms, what class is O=C1/C(=C/c2ccc(Cl)c(Cl)c2)CN(C(=O)CCN2CCC(=NO)CC2)C/C1=C\c1ccc(Cl)c(Cl)c1 ?
Solution: one

Problem: In plain terms, what class is O=C1CC(c2nc3ccccc3[nH]2)CN1C1CCCCC1 (stereo not given) ?
Solution: three

Problem: In plain terms, what class is CC[C@H](Nc1nc(N)nc(C)c1C#N)c1nc2cccc(NCc3ccc(C(=O)NO)cc3)c2c(=O)n1-c1ccccc1 ?
Solution: one

Problem: In plain terms, what class is COc1ccc(-c2cc(-c3cccnc3)nc3sc4c(=O)n(-c5ccc(C)cc5)nnc4c23)cc1OC ?
Solution: three

Problem: In plain terms, what class is CC1=N/C(=C\c2cccc(Br)c2)C(=O)O1 ?
Solution: three

Problem: In plain terms, what class is COc1ccc2c(c1)C(=O)/C(=C/c1cccc(OCC(=O)Nc3nc4c(s3)CCCC4)c1)O2 ?
Solution: one

Problem: In plain terms, what class is O=C1c2cc3c(cc2-c2c1c1cc(Cl)c(Cl)cc1c(=O)n2C[C@H](O)CO)OCO3 ?
Solution: one

Problem: In plain terms, what class is Oc1cccc(Nc2nccc(-c3ccc4ccccc4c3)n2)c1 ?
Solution: two

Problem: In plain terms, what class is C=CCSc1nnc(-c2ccc(C(C)(C)C)cc2)n1-c1cccc(C(F)(F)F)c1 ?
Solution: two

Problem: In plain terms, what class is C[C@@]1(N2C(=O)OC[C@@H]2c2ccccc2)C(=O)N([C@H](CC(=O)N2CCC(N3CCCCC3)CC2)C(=O)NCc2cccc(C(F)(F)F)c2)[C@@H]1/C=C/c1ccccc1 ?
Solution: three

Problem: In plain terms, what class is CC(=O)OC1Oc2cc(C)c(C)cc2-c2oc(=O)c(-c3cc4ccc(N(C)C)cc4oc3=O)cc21 (stereo not given) ?
Solution: three

Problem: In plain terms, what class is CCCCCCCCCCCCNC(=O)[C@H]1CSC(c2ccc(OC)c(F)c2)N1 (stereo not given in full) ?
Solution: one

Problem: In plain terms, what class is Cc1cc(=O)oc2cc(Oc3nc(-c4cccs4)cn4c(-c5cccs5)cnc34)ccc12 ?
Solution: three

Problem: In plain terms, what class is O=C1c2cc3c(cc2-c2c1c1cc(Cl)c(Cl)cc1c(=O)n2CCCn1ccnc1)OCO3 ?
Solution: two

Problem: In plain terms, what class is Oc1ccc(Nc2nccc(-c3ccc4ccccc4c3)n2)cc1 ?
Solution: two

Problem: In plain terms, what class is CCN(CC)Cc1cc(Nc2c3ccc(Cl)cc3nc3c(C)cccc23)ccc1O ?
Solution: one

Problem: In plain terms, what class is CCOC(=O)c1c2c(n3ccc(NC(=O)CCN4CCCCC4)cc13)C(=O)c1ncccc1C2=O ?
Solution: two
